- target_or_test_system: UniProt:P18825
- Sequence (P18825 whole entry): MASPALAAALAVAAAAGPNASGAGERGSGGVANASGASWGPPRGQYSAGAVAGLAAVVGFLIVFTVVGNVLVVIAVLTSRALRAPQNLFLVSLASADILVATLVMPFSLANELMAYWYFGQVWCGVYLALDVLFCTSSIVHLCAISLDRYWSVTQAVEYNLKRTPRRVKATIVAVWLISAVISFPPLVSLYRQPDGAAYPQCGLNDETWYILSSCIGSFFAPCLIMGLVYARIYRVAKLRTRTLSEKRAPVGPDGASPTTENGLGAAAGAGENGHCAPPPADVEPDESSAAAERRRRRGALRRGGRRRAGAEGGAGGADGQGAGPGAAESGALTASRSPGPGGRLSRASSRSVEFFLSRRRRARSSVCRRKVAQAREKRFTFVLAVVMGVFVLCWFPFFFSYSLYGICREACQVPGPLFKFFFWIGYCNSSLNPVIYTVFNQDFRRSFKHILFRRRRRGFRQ
- test_parameters: Compound concentration 10 µM
- Description: PDSP Primary Binding target: ADRA2C - Compounds are tested at 10 uM concentration, plate are incubated at room temperature in the dark for 90 minutes. Reaction are stopped by vacuum filtration onto 0.3% polyethyleneimine soaked filter mats using Filtermate harvester. Scintilation cocktail is then melted onto microwave-dried filters on a hot plate and the radio activity is counted in Microbia counter.
observation_type: inhibition (%)
Supply the numeric figure in %, leaving out any unit text.

Look up inhibition for this compound: CN1CCCC(n2nc(Cc3ccc(Cl)cc3)c3ccccc3c2=O)CC1 (stereo not given)
64.5

And then "N[C@H](C(=O)O)c1ccc(C(=O)O)c(C(=O)O)c1" , what is it?
-9.35

And then "O=c1ccn([C@@H]2O[C@H](COP(=O)(O)OP(=O)(O)O)[C@@H](O)[C@H]2O)c(=O)[nH]1" , what is it?
-6.08

And then "CCCCC#Cc1nc(NC)c2ncn([C@@H]3O[C@H](CO)[C@@H](O)[C@H]3O)c2n1" , what is it?
-4.88

And then "Clc1cccc(Cl)c1NC1=NCCN1" , what is it?
84.7

* * *

- target_or_test_system: UniProt P18089
- Sequence (whole entry): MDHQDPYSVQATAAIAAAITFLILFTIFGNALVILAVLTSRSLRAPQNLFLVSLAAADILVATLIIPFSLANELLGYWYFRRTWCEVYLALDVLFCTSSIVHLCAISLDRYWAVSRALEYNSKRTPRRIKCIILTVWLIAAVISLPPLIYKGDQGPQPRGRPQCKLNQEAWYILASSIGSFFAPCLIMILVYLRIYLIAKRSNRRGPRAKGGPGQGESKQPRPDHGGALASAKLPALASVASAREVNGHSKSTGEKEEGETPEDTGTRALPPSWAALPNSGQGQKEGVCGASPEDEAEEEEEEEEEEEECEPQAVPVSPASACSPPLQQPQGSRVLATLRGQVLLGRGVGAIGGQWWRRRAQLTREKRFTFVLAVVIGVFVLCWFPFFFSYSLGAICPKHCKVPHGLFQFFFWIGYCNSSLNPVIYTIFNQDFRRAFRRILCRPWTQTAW
- test_parameters: Compound concentration 10 µM
- Description: PDSP Primary Binding target: ADRA2B - Compounds are tested at 10 uM concentration, plate are incubated at room temperature in the dark for 90 minutes. Reaction are stopped by vacuum filtration onto 0.3% polyethyleneimine soaked filter mats using Filtermate harvester. Scintilation cocktail is then melted onto microwave-dried filters on a hot plate and the radio activity is counted in Microbia counter.
observation_type: inhibition (%)
Supply the numeric figure in %, leaving out any unit text.

Look up inhibition for this molecule: "Cc1ccc2c(c1)c1c(n2CCc2ccc(C)nc2)CCN(C)C1"
91.7

And then "Cc1ccc(O)c([C@H](CCN(C(C)C)C(C)C)c2ccccc2)c1" , what is it?
36.7

And then "Oc1ccc2c3c1O[C@H]1c4[nH]c5c(c4C[C@@]4(O)[C@@H](C2)N(CC2CC2)CC[C@]314)C[C@@]1(O)[C@H]2Cc3ccc(O)c4c3[C@@]1(CCN2CC1CC1)[C@H]5O4" , what is it?
8.68

And then "COc1ccccc1CN[C@H]1C2CCN(CC2)[C@H]1C(c1ccccc1)c1ccccc1" , what is it?
3.23

And then "N#Cc1ccc(NC(=O)Nc2ccccc2Br)c2nn[nH]c12" , what is it?
-2.75

And then "NCCc1cn(S(=O)(=O)c2c(Cl)nc3sccn23)c2ccccc12" , what is it?
47.2

And then "CCCCCCCCCCCCC/C=C/[C@@H](O)[C@@H](N)COP(=O)(O)O" , what is it?
-1.62

And then O=C(c1cc2c(cc1F)OC(c1ccc(F)cc1)(c1ccc(Cl)cc1Cl)O2)N1CCOCC1 (stereo not given) , what is it?
28.5

And then "N#Cc1c[nH]c2c(C(=O)N3CCN(CCc4ccc(F)cc4)CC3)cccc12" , what is it?
-6.2

And then "COc1ccc(S(=O)(=O)N2c3ccc(Cl)cc3[C@](O)(c3ccccc3Cl)[C@@H]2C(=O)N2CCC[C@H]2C(N)=O)cc1OC" , what is it?
0.34

And then "CCc1nn2c(C)cc(C)nc2c1Cc1ccc(-c2nnc(C3CCNCC3)o2)cc1" , what is it?
27.4

And then "COc1cccc([C@H](O)C2CCN(CCc3ccc(F)cc3)CC2)c1OC" , what is it?
71.7

And then "Nc1nc(NCCc2ccc(O)cc2)nc2nc(-c3ccco3)nn12" , what is it?
-1.01

And then "CCCCN(CCCC)C(=O)CN1C[C@@H](c2ccc3c(c2)OCO3)[C@H](C(=O)O)[C@H]1c1ccc(OC)cc1" , what is it?
2.24

And then "N[C@H](C(=O)O)c1ccc(C(=O)O)c(C(=O)O)c1" , what is it?
-4.38

And then "COC1CCN(c2cccc(-c3cc(NC(C)=O)nc(-n4nc(C)cc4C)n3)n2)CC1" , what is it?
-0.88

And then "CN[C@@H]1CCc2[nH]c3ccc(C(N)=O)cc3c2C1" , what is it?
13.7

And then "COc1cc2c(CCNC(C)=O)c[nH]c2cc1Cl" , what is it?
9.08

And then "Cc1nc(-c2ccc(C(F)(F)F)cc2)sc1COc1ccc([C@H](CC(=O)O)c2ccon2)cc1" , what is it?
-6.48

And then "CCCn1c(=O)c2nc(C34CC5CC(CC3C5)C4)[nH]c2n(CCC)c1=O" , what is it?
6.22

Origin of measurements: ChEMBL document CHEMBL5442219
